Data origin, for the record: patent US20130245355A1

- experimental.system: PDK1 (Homo sapiens)
- Construct: endogenous in cells; host or cells: PC3 cells
- Sequence (O15530 whole entry): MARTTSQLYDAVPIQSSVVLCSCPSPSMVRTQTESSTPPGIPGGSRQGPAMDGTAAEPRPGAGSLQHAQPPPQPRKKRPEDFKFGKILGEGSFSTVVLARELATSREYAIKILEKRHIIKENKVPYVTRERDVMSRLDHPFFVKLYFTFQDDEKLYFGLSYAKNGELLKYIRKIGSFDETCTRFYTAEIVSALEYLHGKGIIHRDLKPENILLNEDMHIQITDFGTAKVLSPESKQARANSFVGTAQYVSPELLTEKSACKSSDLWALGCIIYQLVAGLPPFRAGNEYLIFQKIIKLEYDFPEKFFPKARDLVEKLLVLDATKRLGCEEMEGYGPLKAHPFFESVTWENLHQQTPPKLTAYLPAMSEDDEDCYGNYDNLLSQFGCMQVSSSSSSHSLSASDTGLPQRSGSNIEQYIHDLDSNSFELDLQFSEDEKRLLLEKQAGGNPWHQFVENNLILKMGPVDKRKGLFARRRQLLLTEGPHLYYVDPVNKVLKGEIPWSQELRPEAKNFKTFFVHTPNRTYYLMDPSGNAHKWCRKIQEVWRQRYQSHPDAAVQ
- assay.procedure: Cellular testing of PDK1 kinase inhibitors in PC3 cells (Luminex, phospho-T308-PKB)
- Assay type: cell-based
- condition.set: 30 min, serum-free
pIC50: −log10 of the molar value.
measured.endpoint: pIC50

Known pIC50 results, listed for orientation:
>>> reported_result("Cn1cc(-c2cnc3[nH]cc(-c4csc(Cc5cccc(F)c5F)n4)c3c2)cn1 [A9]")
"5.00 to 6.00"
>>> reported_result("Cn1cc(-c2cnc3[nH]cc(-c4noc(C(=O)c5ccccc5)n4)c3c2)cn1 [A27]")
"5.00 to 6.00"
>>> reported_result("Cn1cc(-c2cnc3[nH]cc(-c4nnc(C(O)c5ccccc5F)o4)c3c2)cn1 (centres unmarked) [A43]")
"5.00 to 6.00"

Ask: Which pIC50 value is on record for Cn1cc(-c2cnc3[nH]cc(-c4cc(C(C)(O)c5ccccc5F)on4)c3c2)cn1 (centres unmarked) [A6] ?
Reply: 6.00 to 9.30

Ask: Would you mind telling me what pIC50 value was observed for Cn1cc(-c2cnc3[nH]cc(-c4nnc(C(O)c5cccc(F)c5F)o4)c3c2)cn1 (centres unmarked) [A46] ?
Reply: 6.00 to 9.30

Ask: Return reported pIC50; argument: Cn1cc(-c2cnc3[nH]cc(-c4nnc(C(N)c5cc(F)cc(F)c5)o4)c3c2)cn1 (centres unmarked) [A117]
Reply: 5.00 to 6.00

Ask: Param item = Cn1cc(-c2cnc3[nH]cc(-c4cc(C(O)c5ccccc5)n(C)n4)c3c2)cn1 (centres unmarked) [A84] ; retrieve measured pIC50.
Reply: 5.00 to 6.00

Ask: Entry Cn1cc(-c2cnc3[nH]cc(-c4cc([C@](C)(O)c5cccc(F)c5)on4)c3c2)cn1 (single isomer, unassigned) [A63] : reported pIC50 = ?
Reply: 5.00 to 6.00
